Tested on: L1210 leukemia ip in BDF1 mice, survival T/C
Assay: NCI In Vivo Anticancer Drug Screen. Data for tumor model L1210 Leukemia (intraperitoneal) in B6D2F1 (BDF1) mice
Details: endpoint: mean survival time; dose: 100.0 mg/kg/injection; schedule: Q04DX003 (ip); vehicle: saline; higher = longer survival
Toxic doses and inconclusive results are not listed.
observable: T/C

// T/C value for "O=c1[nH]nc(/C=C/c2ccccc2)o1" : 95 % of control

The value of T/C measured for the compound CC(C)NC1C2CCC(CC2)C1(O)c1ccc(Cl)c(Cl)c1 (centres undefined) turned out to be 92 % of control

// sample "COC(=O)c1cscc1C=O" , its T/C was 100 % of control

====

Each entry below lists one item and its recorded T/C value.
Tested on: L1210 leukemia ip in BDF1 mice, survival T/C
Assay: NCI In Vivo Anticancer Drug Screen. Data for tumor model L1210 Leukemia (intraperitoneal) in B6D2F1 (BDF1) mice
Settings: endpoint: mean survival time; dose: 200.0 mg/kg/injection; schedule: Q04DX003 (ip); vehicle: saline with Tween-80; higher = longer survival
Inconclusive results and toxic doses are left out.

So the reported T/C for "Cc1ccc(S(=O)(=O)OCCCOS(=O)(=O)c2ccc(C)cc2)cc1" , on L1210 leukemia ip in BDF1 mice, survival T/C, turned out to be 102 % of control

The value of T/C recorded for "COc1ccc(C(=O)NC(=S)Nc2ccc(O)cc2)cc1" when tested on L1210 leukemia ip in BDF1 mice, survival T/C reads 94 % of control

====

Tested on: L1210 leukemia ip in BDF1 mice, survival T/C
Assay: NCI In Vivo Anticancer Drug Screen. Data for tumor model L1210 Leukemia (intraperitoneal) in B6D2F1 (BDF1) mice
Settings: endpoint: mean survival time; dose: 12.5 mg/kg/injection; schedule: Q04DX002 (ip); vehicle: saline with Tween-80; higher = longer survival
Inconclusive results and toxic doses are left out.
observable: T/C

Solved cases (4 shown):
# compound, T/C
data = [
    ("CCN(CC)C(=S)Oc1ccc(OC(=S)N(CC)CC)cc1", "93 % of control"),
    ("COc1ccc(/C=C/[N+](=O)[O-])cc1", "93 % of control"),
    ("CCCCCCC1CCC(N)CC1 (stereo not given)", "95 % of control"),
    ("COc1cc(OC)c(/C=C/c2cnc3ccccc3n2)c(OC)c1", "88 % of control"),
]

Could you now consider this next compound?
Case "C1CSCS1" , L1210 leukemia ip in BDF1 mice, survival T/C, T/C recorded as 103 % of control

====

Tested on: L1210 leukemia ip in BDF1 mice, survival T/C
Experiment: NCI In Vivo Anticancer Drug Screen. Data for tumor model L1210 Leukemia (intraperitoneal) in B6D2F1 (BDF1) mice
Settings: endpoint: mean survival time; dose: 300.0 mg/kg/injection; schedule: Q01DX001 (ip); vehicle: saline; higher = longer survival
Toxic doses and inconclusive results are not listed.
T/C by entry:

T/C reported for this molecule "Cc1ccccc1S(=O)(=O)NC1c2ccccc2Oc2ccccc21" : 86 % of control

Lookup result for "O=[N+]([O-])/C=C/c1cccc2ccccc12" ; measured T/C: 101 % of control

Looking up "Cc1ccc(S(=O)(O)=S)cc1.[Fe]" , I see its T/C listed as 86 % of control
